TARGET UNDER TEST: human CDK6/cyclin D3 (Homo sapiens, UniProt Q00534)
Sequence (Q00534 whole entry): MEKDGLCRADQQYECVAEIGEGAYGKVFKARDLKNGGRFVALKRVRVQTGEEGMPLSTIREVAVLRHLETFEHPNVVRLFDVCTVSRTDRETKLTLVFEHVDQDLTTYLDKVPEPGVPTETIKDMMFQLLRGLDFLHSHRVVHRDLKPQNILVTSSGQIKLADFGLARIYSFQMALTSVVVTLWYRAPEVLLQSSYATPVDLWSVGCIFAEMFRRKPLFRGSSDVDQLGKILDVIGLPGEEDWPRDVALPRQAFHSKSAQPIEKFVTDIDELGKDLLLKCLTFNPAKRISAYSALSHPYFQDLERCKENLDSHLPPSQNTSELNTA
Sequence (P30281 whole entry partner): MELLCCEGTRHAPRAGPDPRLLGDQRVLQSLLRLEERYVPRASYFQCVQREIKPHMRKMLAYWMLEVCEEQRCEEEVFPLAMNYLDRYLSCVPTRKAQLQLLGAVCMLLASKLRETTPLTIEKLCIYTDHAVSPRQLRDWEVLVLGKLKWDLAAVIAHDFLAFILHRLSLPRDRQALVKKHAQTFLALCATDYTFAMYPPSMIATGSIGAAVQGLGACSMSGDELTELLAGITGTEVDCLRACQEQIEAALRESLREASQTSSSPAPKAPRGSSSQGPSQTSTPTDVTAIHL
TEST PROTOCOL: KinaseProfiler radiometric protein kinase assay
TEST SETTINGS: ATP at Km, Eurofins KinaseProfiler, read-out: IC50 (biochemical profiling)
RESULT TYPE: IC50 (nM)
Express it in nM; write the number only.

Reported IC50 of CC(C)N1CCN(c2ccc(Nc3ncc(F)c(-c4cnc5cnn(C6CC6)c5c4)n3)cc2)CC1 : 290

###

System: MDA-MB-453 cells
TEST PROTOCOL: Cellular proliferation assay (MTT)
Type: cell-based
TEST SETTINGS: Homo sapiens, 72 h, mean ± SD, read-out: IC50 (cellular profiling)
For each record, write down the corresponding IC50.
Express it in µM; write the number only.

Reported IC50 of CCN1CCN(Cc2ccc(Nc3ncc(F)c(-c4cc(F)c5nc(C)n(C(C)C)c5c4)n3)nc2)CC1 [abemaciclib] : 2.34

Reported IC50 of CC(C)N1CCN(c2ccc(Nc3ncc(F)c(-c4cnc5cnn(C6CC6)c5c4)n3)cc2)CC1 [C2213-A] : 1.28
